# system.under.test: T1, IL-2 receptor βγ complex on pan T cells (human, UniProt P14784 27-551; P31785 23-369)
# T1 sequence (looked up) 1: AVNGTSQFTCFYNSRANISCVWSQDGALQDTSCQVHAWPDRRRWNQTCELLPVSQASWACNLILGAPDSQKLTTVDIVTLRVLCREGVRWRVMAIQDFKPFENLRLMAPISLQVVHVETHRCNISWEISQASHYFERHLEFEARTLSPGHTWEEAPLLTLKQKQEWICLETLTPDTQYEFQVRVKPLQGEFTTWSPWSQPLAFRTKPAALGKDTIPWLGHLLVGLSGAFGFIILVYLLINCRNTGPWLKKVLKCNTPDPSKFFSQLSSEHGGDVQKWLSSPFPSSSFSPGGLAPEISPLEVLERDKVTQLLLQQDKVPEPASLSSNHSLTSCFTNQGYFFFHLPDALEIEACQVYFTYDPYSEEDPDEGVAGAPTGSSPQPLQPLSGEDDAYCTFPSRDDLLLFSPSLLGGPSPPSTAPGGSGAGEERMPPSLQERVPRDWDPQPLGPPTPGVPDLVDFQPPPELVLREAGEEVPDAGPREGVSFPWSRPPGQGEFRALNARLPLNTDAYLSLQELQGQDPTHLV
# T1 sequence (looked up) 2: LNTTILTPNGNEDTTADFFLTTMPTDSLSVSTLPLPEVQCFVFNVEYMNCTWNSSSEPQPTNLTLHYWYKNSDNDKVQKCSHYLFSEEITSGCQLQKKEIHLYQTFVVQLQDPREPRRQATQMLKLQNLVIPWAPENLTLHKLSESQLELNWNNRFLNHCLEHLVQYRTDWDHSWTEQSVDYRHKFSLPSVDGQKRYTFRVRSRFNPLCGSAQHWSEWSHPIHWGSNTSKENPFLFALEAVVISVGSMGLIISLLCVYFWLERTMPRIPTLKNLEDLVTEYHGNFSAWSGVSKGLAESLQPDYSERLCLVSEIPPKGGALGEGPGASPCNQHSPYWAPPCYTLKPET
# method: cell-based or functional assay
Bridges are numbered along the chain shown (N, C = ends). Primed or numbered codes have the meaning given here. [ ]: non-standard residue; d: D form. Ygp = O-(8x polyethylene glycol-amino)-tyrosine; Yn3 = O-(9x polyethylene glycol-azido)-tyrosine; PEG4′ = 4x polyethylene glycol; hSer = N[C@@H](CCO)C(=O)O; Nle = CCCC[C@H](N)C(=O)O
experimental.endpoint: Average EC50, pSTAT5 assay in pan T cells, intact molecule
A complete answer gives the number followed by the unit.

binder | reported.measurement
CMP-162 (ligand, not fully specified (residue 23); ends and bridges not checked; also: cleavable moiety on Lys23 side chain, structure not given here) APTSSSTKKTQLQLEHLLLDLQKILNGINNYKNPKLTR[Nle]L[hSer][Yn3]KF[Ygp][Nle]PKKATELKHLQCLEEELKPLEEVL[hSer]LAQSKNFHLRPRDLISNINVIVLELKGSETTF[hSer]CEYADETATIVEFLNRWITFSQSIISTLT | 2.79 nM

Shifting focus to the binder that follows.
Q) I would be grateful if you could share the reported Average EC50, pSTAT5 assay in pan T cells, intact molecule for CMP-159 (ligand, linker N-28 via PEG4′; ends not checked) PLGLAGAPTSSSTKKTQLQLEHLLLDLE[Nle]ILNGINNYKNPKLTR[Nle]L[hSer][Yn3]KF[Ygp][Nle]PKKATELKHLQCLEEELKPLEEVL[hSer]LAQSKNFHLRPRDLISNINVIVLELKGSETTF[hSer]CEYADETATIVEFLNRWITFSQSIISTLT .
A) 35.5 nM
